- testedTarget: human CCR6 (Homo sapiens)
- Sequence (P51684 whole entry): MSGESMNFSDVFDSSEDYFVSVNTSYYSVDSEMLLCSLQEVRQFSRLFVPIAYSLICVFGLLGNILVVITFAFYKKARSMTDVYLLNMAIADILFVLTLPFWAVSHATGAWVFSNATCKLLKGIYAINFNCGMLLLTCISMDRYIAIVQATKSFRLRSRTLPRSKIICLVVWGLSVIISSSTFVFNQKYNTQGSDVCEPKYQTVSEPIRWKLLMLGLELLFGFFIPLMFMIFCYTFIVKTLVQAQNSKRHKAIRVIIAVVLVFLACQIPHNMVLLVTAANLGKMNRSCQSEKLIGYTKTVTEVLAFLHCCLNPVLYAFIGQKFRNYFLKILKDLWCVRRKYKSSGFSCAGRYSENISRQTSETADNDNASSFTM
- methodSummary: Human CCR6-CRE reporter assay
- Type: cell-based
- Set-up: The second construct contained the open reading frame of human CCR6 in the pUNO1 backbone; host or cells: 293FT cells
- testContext: relative -Log IC50; 293FT cells transfected with human CCR6 and CRE-luciferase reporter; 6 μM Forskolin, 6 nM CCL20; 5 h
Item-by-item account of IC50
parameter: IC50 (nM)

1. NC(=O)c1cccc(-c2ccc(S(=O)(=O)[C@H]3CC[C@H](Nc4ccc(S(F)(F)(F)(F)F)cc4)CC3)cc2)c1 [Example 23] :: 50.1
2. NC(=O)c1cc(-c2ccc(S(=O)(=O)N3CCC(Nc4ccc(S(F)(F)(F)(F)F)cn4)CC3)cc2)ccn1 [Example 175] :: 20
3. CC(C)c1nnc2ccc(-c3ccc(S(=O)(=O)[C@H]4CC[C@H](Nc5ccc(S(F)(F)(F)(F)F)cc5)CC4)cc3)cn12 [Example 35] :: 79.4

====

- testedTarget: human CCR6 (Homo sapiens)
- methodSummary: CHO-K1 CCR6 chemotaxis assay towards CCL20
- Assay type: cell-based
- testContext: relative -Log IC50; CHO-K1 cells overexpressing human CCR6; migration towards 100 ng/ml CCL20; 4 h
parameter: log10 IC50 (log10 of the value in nM)

1. CN(C)C(=O)c1ccc(-c2ccc(S(=O)(=O)[C@H]3CC[C@H](Nc4ccc(S(F)(F)(F)(F)F)cc4)CC3)cc2)cc1 :: 1.80
2. N#Cc1c[nH]c2ccc(-c3ccc(S(=N)(=O)[C@H]4CC[C@H](Nc5ccc(S(F)(F)(F)(F)F)cc5)CC4)cc3)cc12 (single isomer, unassigned; (+)) [Example 126] :: 2.10
3. NC(=O)c1cc(-c2ccc(S(=O)(=O)N3CC[C@H](Nc4ccc(S(F)(F)(F)(F)F)cc4)[C@@H](F)C3)cc2)ccn1 (stereo in doubt) :: 1.70
4. N=S(=O)(c1ccc(-c2ccc3c(c2)CC(=O)N3)cc1)N1CCC(Nc2ccc(S(F)(F)(F)(F)F)cc2)CC1 (stereo not drawn) :: 2.30
5. O=C1NCc2cc(-c3ccc(S(=O)(=O)[C@H]4CC[C@H](Nc5ccc(S(F)(F)(F)(F)F)cc5)CC4)cc3)ccc21 :: 1.20
6. Cc1cnc2ccc(-c3ccc(S(=N)(=O)[C@H]4CC[C@H](Nc5ccc(S(F)(F)(F)(F)F)cc5)CC4)cc3)cn12 (stereo partly drawn) :: 1.90

====

- testedTarget: human CCR6 (Homo sapiens)
- methodSummary: Human CCR6-CRE reporter assay
- Type: cell-based
- Parameters: The second construct contained the open reading frame of human CCR6 in the pUNO1 backbone; host or cells: 293FT cells
- testContext: relative -Log IC50; 293FT cells transfected with human CCR6 and CRE-luciferase reporter; 6 μM Forskolin, 6 nM CCL20; 5 h
pIC50: −log10 of the molar value.
pIC50 values, listed per item
parameter: pIC50

1) NC(=O)c1cc(-c2ccc(S(=O)(=O)[C@H]3CC[C@H](Nc4ccc(S(F)(F)(F)(F)F)cc4)CC3)cc2)cn2ccnc12 :: 7.10
2) N=S(=O)(c1ccc(-c2ccn3ccnc3c2)cc1)[C@H]1CC[C@H](Nc2ccc(S(F)(F)(F)(F)F)cc2)CC1 (stereo partly shown) :: 6.40
3) O=S(=O)(c1ccc(-c2cc(F)c3nccn3c2)cc1)[C@H]1CC[C@H](Nc2ccc(S(F)(F)(F)(F)F)cc2)CC1 :: 7.00
4) Cc1nc2cc(-c3ccc(S(=O)(=O)[C@H]4CC[C@H](Nc5ccc(S(F)(F)(F)(F)F)cc5)CC4)cc3)ccn2n1 :: 6.80
5) CC(C)c1nnc2ccc(-c3ccc(S(=O)(=O)N4CCC(Nc5ccc(S(F)(F)(F)(F)F)cn5)CC4)cc3)cn12 :: 7.70
6) Cc1cnc2ccc(-c3ccc(S(=O)(=O)N4CCC(Nc5ccc(S(F)(F)(F)(F)F)cc5)CC4)cn3)cn12 :: 6.10
7) NC(=O)c1cc(-c2ccc(S(=O)(=O)[C@H]3CC[C@H](Nc4ccc(S(F)(F)(F)(F)F)cc4)CC3)cc2)ccn1 :: 7.10
8) CNC(=O)c1ccc(-c2ccc(S(=N)(=O)[C@H]3CC[C@H](Nc4ccc(S(F)(F)(F)(F)F)cc4)CC3)cc2)cc1 (stereo partly shown) :: 6.60
9) CNC(=O)c1ccc(-c2ccc(S(=O)(=O)[C@H]3CC[C@H](Nc4ccc(S(F)(F)(F)(F)F)cc4)CC3)cc2)nc1 :: 7.20
10) O=S(=O)(c1ccc(-c2ccc3nncn3c2)cc1)[C@H]1CC[C@H](Nc2ccc(S(F)(F)(F)(F)F)cc2)CC1 :: 6.90
11) O=S(=O)(c1ccc(-c2ccc3nccn3c2)cc1)N1CCC(Nc2cccc(S(F)(F)(F)(F)F)c2)CC1 :: 6.70
12) CC(C)c1nnc2ccc(-c3ccc(S(=N)(=O)[C@H]4CC[C@H](Nc5ccc(S(F)(F)(F)(F)F)cn5)CC4)cc3)cn12 (stereo partly shown) :: 7.00
13) O=S(=O)(c1ccc(-c2ccc3nccn3c2)cc1)[C@H]1CC[C@H](Nc2ccc(S(F)(F)(F)(F)F)cn2)CC1 :: 7.00
